Data origin, for the record: ChEMBL document CHEMBL4732158

compounds and their reported pEC50
System tested: Sphingosine 1-phosphate receptor 3 (Homo sapiens, UniProt Q99500)
Sequence (Q99500 whole entry): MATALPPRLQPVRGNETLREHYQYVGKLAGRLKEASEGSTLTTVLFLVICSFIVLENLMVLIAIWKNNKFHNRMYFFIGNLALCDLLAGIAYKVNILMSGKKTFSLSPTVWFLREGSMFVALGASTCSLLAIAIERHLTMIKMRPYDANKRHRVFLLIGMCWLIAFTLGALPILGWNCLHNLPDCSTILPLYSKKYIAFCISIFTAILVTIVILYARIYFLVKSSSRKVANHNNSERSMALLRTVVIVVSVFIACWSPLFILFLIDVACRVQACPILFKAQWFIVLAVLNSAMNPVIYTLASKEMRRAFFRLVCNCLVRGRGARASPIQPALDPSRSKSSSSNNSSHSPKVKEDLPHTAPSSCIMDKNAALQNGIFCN
Experiment: Agonist activity at recombinant human S1P3 expressed in CHO cell membranes assessed as stimulation of [35S]-GTPgammaS binding measured after 45 mins by liquid scintillation counting method
pEC50: −log10 of the molar value.

compound=COCCCCC[C@@H]1CCc2cc([C@H]3CC[C@](N)(COP(=O)(O)O)C3)ccc2C1 measured_value="< 6.00"

// pEC50 lookup, key: CCOCCC[C@H]1CCc2cc([C@H]3CC[C@](N)(COP(=O)(O)O)C3)ccc2C1 < 6.00

====

Experiment: Drug concentration in Lewis rat blood assessed as concentration of parent compound at 2 mg/kg, po measured at 24 hrs by LC-MS/MS analysis
Assay type: ADME, organism-based
Measurement conditions: in vivo, read-out: Ct
Measured metric: concentration (nM)

molecule=C=CCCOC[C@@H]1CCc2cc([C@H]3CC[C@](N)(CO)C3)ccc2C1 measured_value=48
molecule="COCCCCCCC1CCc2cc([C@H]3CC[C@](N)(CO)C3)ccc2C1 (stereo in doubt; 25b)" measured_value=295

[I] COCCCCCC1CCc2cc([C@H]3CC[C@](N)(CO)C3)ccc2C1 (single isomer, unassigned; 23)
[II] COCCCC1CCc2cc([C@H]3CC[C@](N)(CO)C3)ccc2C1 (stereo in doubt; 22a)
Larger number for concentration: I , or II ? Give the label of your selection. I
